Target: T1, PACAP38 (human, not fully specified)
T1 construct: The background says natural PACAP is alpha-amidated
T1 peptide: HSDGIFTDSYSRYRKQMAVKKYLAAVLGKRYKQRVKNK
Assay: SPR (Biacore S200) off-rate ranking, antibody captured from supernatant, single injection of 33.3 nM PACAP38
REPORTED_METRIC: koff (s⁻¹)
Kindly provide the numeric value in s⁻¹ only, without the unit symbol.

627C (antibody, V domains shown) VH: EVQLVQSGAEVKKPGSSVKVSCKASGGTFSDVYMHWVRQAPGQGLEWMGLIYPIFADTRYAQKFQGRVTITADESTSTAYMELSSLRSEDTAVYYCAIDQDGSFAYWGQGTLVTVSS VL: DIVMTQSPDSLAVSLGERATINCKSSQSLLDSDGKTYLNWLQQKPGQPPKRLIYWASTRESGVPDRFSGSGSGTDFTLTISSLQAEDVAVYYCWQGTWFDLTFGGGTKVEIKR | 0.000789
604C (antibody, V domains shown) VH: EVQLVQSGAEVKKPGSSVKVSCKASGGTFSDSYMHWVRQAPGQGLEWMGLIYPIFADTRYAQKFQGRVTITADESTSTAYMELSSLRSEDTAVYYCAIDQDGSFAYWGQGTLVTVSS VL: DIVMTQSPDSLAVSLGERATINCKSSQSLLDSDGKTYLNWLQQKPGQPPKRLIYWASTRESGVPDRFSGSGSGTDFTLTISSLQAEDVAVYYCWQGTWFDLTFGGGTKVEIK | 0.000319

Below: the item to evaluate.
Memo: 890C (antibody, human IgG2, kappa, V domains shown, Full chains as named '890C heavy chain' / '890C light chain' (IgG2DASS, kappa); also called anti-PACAP antibody 890C) VH: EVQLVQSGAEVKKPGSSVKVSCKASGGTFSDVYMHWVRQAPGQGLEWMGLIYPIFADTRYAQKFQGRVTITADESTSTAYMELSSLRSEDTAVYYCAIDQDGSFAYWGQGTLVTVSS VL: DIVMTQSPDSLAVSLGERATINCKSSQSLLDADGKTYLNWLQQKPGQPPKRLIYWASTRESGVPDRFSGSGSGTDFTLTISSLQAEDVAVYYCWQGTWFDLTFGGGTKVEIKR , reported koff: 0.000671
